The measurements presented in this section are drawn from patent US20150259344A1.

# target_desc: human α7 nAChR (Homo sapiens)
# Construct: expressed in transfected cells
# method_summary: Evaluation of PAM activity with human α7 nACh receptor stably expressing cells (aequorin luminescence, FDSS7000)
# Type: cell-based
# condition_parameters: 1 μM test compound (values marked *, footnote of Table 25); ACh at EC20; ratio of RLU (Max-Min) to control wells; read-out: α7PAM (%) @1 μM
# Experimental: Evaluation of PAM activity with human α7 nACh receptor stably expressing cells (1) Human α7 nAChR stably expressing cells Human α7 nAChR stably expressing cells were generated and cultured. Thus, the cells were subcultured. Seven days after subculturing, the cells were treated with TrypLE Express to collect them when they were about 80% confluent. […] FDSS7000 (Hamamatsu Photonics) was used to detect the luminescence signal evoked by α7 nAChR stimulation. […]
property: activity at 1 µM (%)

O=C(NC1CCOCC1)[C@H]1CC[C@@H](n2cnc(-c3cccc(F)c3)c2)CC1 [Example 355] | 118
O=C(NC1CCC(F)(F)CC1)N1[C@@H]2CC[C@H]1C[C@@H](n1cnc(-c3cc(F)ccc3F)c1)C2 [Example 388] | 335

P: O=C(NC1CCC2(CC1)CC2)N1CCC(n2cnc(-c3cccc(F)c3)c2)CC1 [Example 46]
Q: O=C(N[C@H]1CC[C@@H](n2cnc(-c3ccc(C(F)(F)F)cc3)c2)CC1)C1CCC(F)(F)CC1 [Example 162]
// query Lower value for measured activity at 1 µM? Options: P , Q State the label of the item chosen.
// result P
(P: 104%, Q: 323%)

###

# target_desc: human α7 nAChR (Homo sapiens)
# Construct: expressed in transfected cells
# method_summary: Evaluation of PAM activity with human α7 nACh receptor stably expressing cells (aequorin luminescence, FDSS7000)
# Format: cell-based
# condition_parameters: 10 μM test compound; ACh at EC20; ratio of RLU (Max-Min) to control wells; read-out: α7PAM (%) @10 μM
property: activity at 10 µM (%)

1: O=C(NC1CCCCC1)N1CCC(n2cnc(-c3ccc4c(c3)CCO4)c2)CC1 [Example 43]
2: O=C(N[C@H]1CC[C@@H](n2cnc(-c3ccc(F)cc3)c2Cl)CC1)C1CCOCC1 [Example 323]
// query Lower value for measured activity at 10 µM? Options: 1 , 2 State the label of the item chosen.
// result 1

###

# target_desc: human α7 nAChR (Homo sapiens, UniProt P36544)
# Construct: expressed in transfected cells
# Sequence (P36544 23-502): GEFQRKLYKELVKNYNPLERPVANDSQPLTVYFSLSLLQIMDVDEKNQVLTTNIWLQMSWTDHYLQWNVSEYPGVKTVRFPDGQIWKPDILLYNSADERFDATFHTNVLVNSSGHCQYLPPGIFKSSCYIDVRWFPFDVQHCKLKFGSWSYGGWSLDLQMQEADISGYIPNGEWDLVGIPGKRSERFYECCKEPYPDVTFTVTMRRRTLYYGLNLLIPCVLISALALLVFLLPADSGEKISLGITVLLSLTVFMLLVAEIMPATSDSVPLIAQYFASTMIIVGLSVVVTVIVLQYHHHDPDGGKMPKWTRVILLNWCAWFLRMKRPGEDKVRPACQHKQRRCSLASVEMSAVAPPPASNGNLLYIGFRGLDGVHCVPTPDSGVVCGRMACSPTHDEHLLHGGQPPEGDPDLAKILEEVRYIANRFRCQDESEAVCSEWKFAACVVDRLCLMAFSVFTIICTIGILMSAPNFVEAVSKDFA
# method_summary: Evaluation of PAM activity with human α7 nACh receptor stably expressing cells (aequorin luminescence, FDSS7000)
# Assay type: cell-based
# condition_parameters: 10 μM test compound; ACh at EC20; ratio of RLU (Max-Min) to control wells; read-out: α7PAM (%) @10 μM
property: activity at 10 µM (%)

Use the examples below as a reference point.
Cc1ccccc1-c1cn(C2CCN(C(=O)NC3CCCCC3)CC2)cn1 | 351
Cc1ccc(-c2cn(C3CCN(C(=O)NC4CCC(F)(F)CC4)CC3)cn2)s1 | 780

I: N#Cc1c(-c2ccccc2)ncn1C1CCN(C(=O)C2CC(F)(F)C2)CC1
II: O=C(NC1CCCCC1)N1CCC(n2cnc(-c3ccccc3)c2CO)CC1
III: O=C(NC1CC2CCC1C2)N1CCC(n2cnc(-c3ccc(OC(F)F)cc3)c2)CC1 (centres unmarked)
// query Please put the entries in order of rising activity at 10 µM. Output the labels ranked as instructed.
// result II, III, I
(II: 201%, III: 302%, I: 725%)
